Reported IC50 for target or system UniProt:P12931, by entry.
Sequence (P12931 2-536 limits assumed): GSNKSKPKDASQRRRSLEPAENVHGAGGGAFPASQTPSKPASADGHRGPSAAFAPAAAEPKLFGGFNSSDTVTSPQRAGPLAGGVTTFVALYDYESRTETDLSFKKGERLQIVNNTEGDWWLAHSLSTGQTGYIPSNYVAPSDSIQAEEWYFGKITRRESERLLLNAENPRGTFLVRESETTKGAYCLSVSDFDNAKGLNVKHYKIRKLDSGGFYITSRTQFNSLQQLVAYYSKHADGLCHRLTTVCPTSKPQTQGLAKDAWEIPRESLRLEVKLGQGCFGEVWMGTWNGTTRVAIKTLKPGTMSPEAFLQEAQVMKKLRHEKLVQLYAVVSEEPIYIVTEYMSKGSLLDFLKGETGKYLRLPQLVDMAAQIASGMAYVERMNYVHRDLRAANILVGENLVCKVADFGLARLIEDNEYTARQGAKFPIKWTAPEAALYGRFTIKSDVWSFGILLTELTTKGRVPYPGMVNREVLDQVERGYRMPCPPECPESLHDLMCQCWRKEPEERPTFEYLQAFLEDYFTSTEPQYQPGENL

Cc1cc(-c2n[nH]c3ccc(C(=O)NC(C)c4c(Cl)cncc4Cl)cc23)ccn1 (configuration not stated)    > 1000 nM

# context switch: different compound, same IC50
Give UniProt:P12931 IC50 for CC(NC(=O)c1ccc2[nH]nc(-c3ccncc3)c2c1)c1cccc(Cl)c1 (configuration not stated) > 1000 nM

---

molecular target: Epidermal growth factor receptor (Homo sapiens)
Sequence (P00533 whole entry): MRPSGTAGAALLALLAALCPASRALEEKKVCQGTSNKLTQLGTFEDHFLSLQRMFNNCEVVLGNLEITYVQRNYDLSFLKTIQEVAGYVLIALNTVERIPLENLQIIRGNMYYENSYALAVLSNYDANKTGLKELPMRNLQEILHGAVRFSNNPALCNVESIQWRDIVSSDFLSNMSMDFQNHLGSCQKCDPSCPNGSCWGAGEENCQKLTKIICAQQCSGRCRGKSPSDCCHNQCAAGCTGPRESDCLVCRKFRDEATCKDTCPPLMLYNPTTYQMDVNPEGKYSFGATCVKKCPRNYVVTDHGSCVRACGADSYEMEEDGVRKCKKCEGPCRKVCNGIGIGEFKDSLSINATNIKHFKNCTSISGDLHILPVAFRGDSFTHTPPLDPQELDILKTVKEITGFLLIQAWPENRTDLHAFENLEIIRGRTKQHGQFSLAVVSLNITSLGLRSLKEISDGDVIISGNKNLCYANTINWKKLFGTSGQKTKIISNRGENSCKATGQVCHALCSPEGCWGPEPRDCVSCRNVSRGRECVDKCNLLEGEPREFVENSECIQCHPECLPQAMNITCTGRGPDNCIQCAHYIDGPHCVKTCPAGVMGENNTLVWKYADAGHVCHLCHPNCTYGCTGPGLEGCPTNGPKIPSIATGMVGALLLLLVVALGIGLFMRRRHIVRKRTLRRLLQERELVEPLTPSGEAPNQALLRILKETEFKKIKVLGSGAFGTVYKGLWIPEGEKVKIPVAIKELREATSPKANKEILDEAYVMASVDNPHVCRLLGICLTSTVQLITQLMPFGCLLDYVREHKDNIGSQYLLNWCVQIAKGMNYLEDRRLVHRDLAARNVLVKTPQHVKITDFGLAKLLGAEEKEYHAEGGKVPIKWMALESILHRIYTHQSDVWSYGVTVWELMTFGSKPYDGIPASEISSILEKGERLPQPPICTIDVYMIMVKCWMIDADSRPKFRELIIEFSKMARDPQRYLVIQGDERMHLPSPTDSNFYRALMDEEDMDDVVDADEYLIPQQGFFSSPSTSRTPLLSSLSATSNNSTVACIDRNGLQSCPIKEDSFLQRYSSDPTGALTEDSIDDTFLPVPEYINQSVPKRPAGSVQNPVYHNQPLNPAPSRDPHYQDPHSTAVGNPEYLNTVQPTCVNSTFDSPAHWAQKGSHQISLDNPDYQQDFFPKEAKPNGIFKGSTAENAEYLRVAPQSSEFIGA
measure: IC50

Provide the documented IC50 with Epidermal growth factor receptor (Homo sapiens) as the system for CC(NC(=O)c1ccc2[nH]nc(-c3ccncc3)c2c1)c1cccc(Cl)c1 (stereo unspecified) > 1000 nM
